experimental.target: T1, soluble KDR extracellular domain (ECD) (Calbiochem) (human, UniProt P35968 20-764)
T1 construct: extracellular domain; Bought protein; also called KDR-ECD; VEGF Receptor 2 D1-7, Cat. #676490
T1 sequence (P35968 20-764): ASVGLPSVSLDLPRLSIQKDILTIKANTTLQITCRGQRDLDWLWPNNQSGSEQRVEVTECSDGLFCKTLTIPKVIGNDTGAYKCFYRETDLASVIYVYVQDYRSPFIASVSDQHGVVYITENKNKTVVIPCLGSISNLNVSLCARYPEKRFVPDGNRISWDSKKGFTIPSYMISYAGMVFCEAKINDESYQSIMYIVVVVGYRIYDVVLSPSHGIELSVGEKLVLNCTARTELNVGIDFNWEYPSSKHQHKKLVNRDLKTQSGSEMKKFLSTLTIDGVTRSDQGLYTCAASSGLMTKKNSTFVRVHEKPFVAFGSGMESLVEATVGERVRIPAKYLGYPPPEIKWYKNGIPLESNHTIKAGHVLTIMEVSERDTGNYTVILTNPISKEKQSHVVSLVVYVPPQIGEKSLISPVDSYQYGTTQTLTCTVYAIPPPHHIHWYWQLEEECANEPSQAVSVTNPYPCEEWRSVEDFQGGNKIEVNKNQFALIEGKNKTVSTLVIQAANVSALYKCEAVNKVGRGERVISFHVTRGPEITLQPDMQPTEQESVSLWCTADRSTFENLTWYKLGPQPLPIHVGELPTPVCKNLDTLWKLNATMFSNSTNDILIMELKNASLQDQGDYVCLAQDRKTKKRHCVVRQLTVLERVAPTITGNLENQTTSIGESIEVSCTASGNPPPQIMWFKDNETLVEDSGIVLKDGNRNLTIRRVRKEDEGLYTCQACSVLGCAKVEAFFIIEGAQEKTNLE
assay.remarks: High Antigen ELISA, KDR coat 500 ng/mL, supernatant 1:25

binder	ELISA reading
29A3 (antibody, V domains shown, Fully human mAb from XenoMouse hybridoma, tested as hybridoma supernatant) VH: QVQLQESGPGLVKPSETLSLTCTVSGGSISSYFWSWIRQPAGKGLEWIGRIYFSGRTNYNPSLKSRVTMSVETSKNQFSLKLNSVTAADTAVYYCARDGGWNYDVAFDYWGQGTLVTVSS VL: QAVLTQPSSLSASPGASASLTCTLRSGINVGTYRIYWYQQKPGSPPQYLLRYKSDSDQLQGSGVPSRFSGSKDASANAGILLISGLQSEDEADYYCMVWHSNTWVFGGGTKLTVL	3.89
1G6 (antibody, V domains shown, Fully human mAb from XenoMouse hybridoma, tested as hybridoma supernatant) VH: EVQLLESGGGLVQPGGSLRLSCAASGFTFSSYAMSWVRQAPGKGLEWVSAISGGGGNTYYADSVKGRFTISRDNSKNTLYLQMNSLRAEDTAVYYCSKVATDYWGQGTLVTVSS VL: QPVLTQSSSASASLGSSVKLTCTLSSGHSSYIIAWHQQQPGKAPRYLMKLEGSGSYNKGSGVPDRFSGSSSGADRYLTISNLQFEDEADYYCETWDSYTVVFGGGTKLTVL	6
30F6 (antibody, V domains shown, Fully human mAb from XenoMouse hybridoma, tested as hybridoma supernatant) VH: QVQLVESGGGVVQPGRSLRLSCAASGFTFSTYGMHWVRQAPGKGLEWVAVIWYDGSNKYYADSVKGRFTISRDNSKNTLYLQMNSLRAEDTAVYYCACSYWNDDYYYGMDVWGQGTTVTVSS VL: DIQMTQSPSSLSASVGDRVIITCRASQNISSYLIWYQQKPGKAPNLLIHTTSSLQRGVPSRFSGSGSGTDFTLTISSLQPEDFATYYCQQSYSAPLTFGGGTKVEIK	3.04
31E11 (antibody, V domains shown, Fully human mAb from XenoMouse hybridoma, tested as hybridoma supernatant) VH: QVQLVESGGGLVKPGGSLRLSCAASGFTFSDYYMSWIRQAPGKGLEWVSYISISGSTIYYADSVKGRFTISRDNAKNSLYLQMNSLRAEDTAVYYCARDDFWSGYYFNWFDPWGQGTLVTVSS VL: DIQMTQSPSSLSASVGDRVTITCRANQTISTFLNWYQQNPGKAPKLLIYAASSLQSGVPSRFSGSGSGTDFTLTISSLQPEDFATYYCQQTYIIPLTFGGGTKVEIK	4.48
21H9 (antibody, V domains shown, Fully human mAb from XenoMouse hybridoma, tested as hybridoma supernatant) VH: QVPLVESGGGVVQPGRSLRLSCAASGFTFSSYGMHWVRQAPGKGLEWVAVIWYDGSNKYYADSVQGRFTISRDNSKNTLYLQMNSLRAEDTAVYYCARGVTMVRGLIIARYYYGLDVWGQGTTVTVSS VL: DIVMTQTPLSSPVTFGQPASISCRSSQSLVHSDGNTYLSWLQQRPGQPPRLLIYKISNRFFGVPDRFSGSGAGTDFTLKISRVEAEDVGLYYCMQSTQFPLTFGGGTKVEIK	6
33C3 (antibody, V domains shown, Fully human mAb from XenoMouse hybridoma, tested as hybridoma supernatant) VH: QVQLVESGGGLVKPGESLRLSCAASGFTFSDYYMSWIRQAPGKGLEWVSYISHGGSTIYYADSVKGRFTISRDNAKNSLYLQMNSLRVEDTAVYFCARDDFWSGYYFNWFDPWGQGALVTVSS VL: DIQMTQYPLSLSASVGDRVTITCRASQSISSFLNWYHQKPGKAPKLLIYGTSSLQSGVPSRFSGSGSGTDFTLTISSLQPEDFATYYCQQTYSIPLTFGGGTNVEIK	4.96
33D5 (antibody, V domains shown, Fully human mAb from XenoMouse hybridoma, tested as hybridoma supernatant) VH: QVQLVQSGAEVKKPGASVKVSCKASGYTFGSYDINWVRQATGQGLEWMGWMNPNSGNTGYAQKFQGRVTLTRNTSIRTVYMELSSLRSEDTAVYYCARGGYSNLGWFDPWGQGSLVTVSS VL: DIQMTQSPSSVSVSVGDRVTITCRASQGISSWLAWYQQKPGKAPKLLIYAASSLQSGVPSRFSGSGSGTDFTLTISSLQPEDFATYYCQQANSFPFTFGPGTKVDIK	4.61
